Let's look at some compounds and their measured LD50.
experiment: Acute toxicity (LD50) by oral administration in mice
measurementParameters: mouse, in vivo, per kilogram of body weight

structureSmilesString	LD50 / mg/kg
CN(C)c1cccc2c(S(=O)(=O)N[C@@H](CCCNC(=N)N)C(=O)N3Cc4ccccc4C3)cccc12	1360
CC1CCN(C(=O)[C@H](CCCNC(=N)N)NS(=O)(=O)c2cccc3c(N(C)C)cccc23)CC1	1310
CCC1CCN(C(=O)[C@H](CCCNC(=N)N)NS(=O)(=O)c2cccc3c(N(C)C)cccc23)CC1	1380
